biological target: sickle hemoglobin (HbS) (Homo sapiens, UniProt P68871+P69905, P68871:E7V); experiment: NMR binding; type: biochemical
assay.endpoint: IC50

[
  {
    "compound": "CN1C(=O)CCS(=O)(=O)C1c1ccc(Cl)cc1 (stereo not shown) [chlormezanone]",
    "result": "> 100 µM"
  }
]
